Tested on: MDCK
methodDescription: Permeability from apical to basal side of MDCK cells expressing human mdr1 gene
Format: ADME, cell-based, Canis lupus familiaris
studyConditions: dog
parameterMeasured: permeability

For orientation, consider the following solved cases.
molecule: CCCCCCNC(=O)NC1(c2ccccc2)CCN(C(=O)c2nn(-c3ccc(Cl)cc3Cl)c(-c3ccc(Cl)cc3)c2C)CC1
permeability: < 1%
--
molecule: CCOC(=O)N1CCC[C@@H](NC(=O)c2nn(-c3ccc(Cl)cc3Cl)c(-c3ccc(Cl)cc3)c2C)C1
permeability: < 1%
--
molecule: Cc1c(C(=O)N2CCC(NC(=O)NCc3ccccc3)(c3ccccc3)CC2)nn(-c2ccc(Cl)cc2Cl)c1-c1ccc(Cl)cc1
permeability: < 1%

Request: Fill in the recorded permeability for this molecule, with MDCK as test system: "CC(=O)N1CCC[C@H](NC(=O)c2nn(-c3ccc(Cl)cc3Cl)c(-c3ccc(Cl)cc3)c2C)C1"
Response: 14%

Request: Fill in the recorded permeability for this molecule, with MDCK as test system: "CCCCNC(=O)NC1(c2ccccc2)CCN(C(=O)c2nn(-c3ccc(Cl)cc3Cl)c(-c3ccc(Cl)cc3)c2C)CC1"
Response: < 1%

Request: Fill in the recorded permeability for this molecule, with MDCK as test system: "Cc1c(C(=O)N[C@@H]2CCCN(C(=O)OC(C)(C)C)C2)nn(-c2ccc(Cl)cc2Cl)c1-c1ccc(Cl)cc1"
Response: < 1%

Request: Fill in the recorded permeability for this molecule, with MDCK as test system: "Cc1c(C(=O)N2CCC(NS(C)(=O)=O)(c3ccccc3)CC2)nn(-c2ccc(Cl)cc2Cl)c1-c1ccc(Cl)cc1"
Response: 3%

Request: Fill in the recorded permeability for this molecule, with MDCK as test system: "Cc1c(C(=O)N[C@H]2CCCN(S(C)(=O)=O)C2)nn(-c2ccc(Cl)cc2Cl)c1-c1ccc(Cl)cc1"
Response: < 1%
